Overview of reported IC50 across a group of molecules:
target or system: recombinant homomeric hASIC1a channels (Homo sapiens, UniProt P78348)
Construct: expressed in transfected cells; host or cells: Xenopus laevis oocytes (nuclear microinjection of expression vector such as pcDNA3)
assay text: Two-electrode voltage clamp in Xenopus laevis oocytes expressing gated ion channels (Example 4)
Type: cell-based
experimental context: Table 1; generated using oocytes as in Example 4

Some entries whose results are on file:
* O=C(O)c1cc(OC2CCN(Cc3ccccc3)CC2)c2ccccc2n1 | 20.1 to 30 µM
* COc1cccc2c(OC3CCN(Cc4ccccc4)CC3)cc(C)nc12 | 0.1 to 10 µM
* Cc1cc(OC2CCN(Cc3cccnc3C(=O)O)CC2)c2cccc(F)c2n1 | > 30 µM

INPUT: If you can, please state the reported IC50 value of "Cc1cc(OC2CC(C)(C)N(Cc3ccccc3)C(C)(C)C2)c2ccccc2n1" .
OUTPUT: > 30 µM

INPUT: What about "Cc1cc(OC2CCN(Cc3cccnc3)CC2)c2cccc(F)c2n1" ?
OUTPUT: 0.1 to 10 µM

INPUT: What about Cc1cc(OC2CCN(C(C)c3ccccc3C(=O)O)CC2)c2cccc(F)c2n1 (stereo not drawn) ?
OUTPUT: 0.1 to 10 µM

* * *

Overview of reported IC50 across a group of compounds:
target or system: recombinant homomeric hASIC1a channels (Homo sapiens)
Construct: expressed in transfected cells; host or cells: Xenopus laevis oocytes (nuclear microinjection of expression vector such as pcDNA3)
Sequence (P78348 1-528): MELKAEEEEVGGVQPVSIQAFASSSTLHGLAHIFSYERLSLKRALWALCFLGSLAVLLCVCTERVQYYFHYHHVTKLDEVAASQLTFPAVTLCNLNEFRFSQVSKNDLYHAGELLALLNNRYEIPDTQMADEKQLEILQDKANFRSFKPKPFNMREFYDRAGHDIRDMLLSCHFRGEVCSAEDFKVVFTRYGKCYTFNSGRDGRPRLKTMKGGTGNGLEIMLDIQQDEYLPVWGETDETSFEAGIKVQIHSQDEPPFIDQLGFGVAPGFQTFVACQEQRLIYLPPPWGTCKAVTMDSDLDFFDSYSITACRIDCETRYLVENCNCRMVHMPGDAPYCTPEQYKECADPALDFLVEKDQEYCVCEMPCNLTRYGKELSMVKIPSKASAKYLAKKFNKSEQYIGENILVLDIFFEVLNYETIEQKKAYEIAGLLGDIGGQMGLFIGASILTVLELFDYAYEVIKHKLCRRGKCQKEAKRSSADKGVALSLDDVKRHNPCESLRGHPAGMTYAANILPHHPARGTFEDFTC
assay text: Two-electrode voltage clamp in Xenopus laevis oocytes expressing gated ion channels (Example 4)
Format: cell-based
experimental context: Table 2; generated using oocytes as in Example 4

Some entries whose results are on file:
- Cc1cc(OC2CCN(Cc3ccc(F)c(C#N)c3)CC2)c2ccccc2n1: > 30 µM
- Cc1cc(OC2CCN(Cc3ccccc3-c3nnn[nH]3)CC2)c2cc(Br)ccc2n1: > 30 µM
- Cc1cc(OC2CCN(Cc3c(F)cccc3C#N)CC2)c2cc(Br)ccc2n1: > 30 µM
- Cc1cc(OC2CCN(Cc3ccc(O)c(C(=O)O)c3)CC2)c2cccc(F)c2n1: ≥ 30 µM
- Cc1cc(OC2CCN(Cc3ccccc3C(=O)O)C3CCCCC23)c2cccc(F)c2n1 (stereo not drawn): > 30 µM
- Cc1cc(OC2CCN(Cc3ccccc3C#N)CC2)c2cc(C#N)ccc2n1: > 30 µM
- Cc1cc(OC2CCN(Cc3ccccc3C#N)CC2)c2ccccc2n1: > 30 µM
- Cc1cc(OC2CCN(Cc3c(F)cccc3C(=O)O)CC2)c2cc(Br)ccc2n1: > 30 µM
- COC(=O)c1ccc(CN2CCC(Oc3cc(C)nc4ccccc34)CC2)cc1: 20.1 to 30 µM
- Cc1cc(OC2CCN(Cc3ccccc3C#N)CC2)c2cc(OC3CCCCO3)ccc2n1 (stereo not drawn): > 30 µM

INPUT: If you can, please state the reported IC50 value of "Cc1cc(OC2CCN(Cc3ccc(C(=O)O)cc3)CC2)c2cc(O)ccc2n1" .
OUTPUT: > 30 µM

INPUT: What about "Cc1cc(OC2CCN(Cc3ccccc3-c3nnn[nH]3)CC2)c2cc(Cl)ccc2n1" ?
OUTPUT: 0.1 to 10 µM
